These data points were gathered from ChEMBL document CHEMBL1201862.

Tested on: SW-620
Test: NCI tumour cell line growth inhibition, 48 h
Calls of active or inactive are those of the source. No stated cut-off is given here; in the data, active = GI50 up to about 1.1 µM and inactive = higher.
observed.property: GI50

CC1=NN2C(=N)/C(=C/c3ccccc3)C(=O)N=C2S1 = > 100 µM (inactive)
c1cc(-c2cn3ccsc3n2)ccn1 = > 43.1 µM (inactive)
O=C(N/C(=C\c1cccc([N+](=O)[O-])c1)c1nc2c3c(ccc2[nH]1)C(=O)c1ccccc1C3=O)c1ccccc1 = 45.5 µM (inactive)
N#C/C(=C\NC(=S)c1ccncc1)c1nc2ccccc2s1 = > 100 µM (inactive)
CC(C)N(c1cc2c(cc1F)c(=O)c(C(=O)O)cn2-c1ccc(N2CCN(C)CC2)cn1)C(C)C = > 100 µM (inactive)
CCCCc1ccc(N2C(=O)c3cccnc3S2(=O)=O)cc1 = > 100 µM (inactive)

// each listed molecule needs a value for GI50
1. CC(C)NC(=O)OCc1c(COC(=O)NC(C)C)c(-c2ccc[n+](COC(=O)C3CC3)c2)n2c1CCC2
2. Cn1c(=O)n2n(c1=O)C(S(=O)(=O)c1ccccc1)C2 (stereo not given)
3. N#Cc1c(-c2ccc(Cl)cc2)cc(-c2ccc(Nc3ccnc4cc(C(F)(F)F)ccc34)cc2)[nH]c1=O
4. COC(=O)CC[C@@H](NC(=O)C(C)NC(=O)COC1C(O)C(COC(=O)CCCCCCCCCCNC(=O)c2ccc([N+](=O)[O-])c3[nH]c4cc(Br)ccc4c(=O)c23)OC(OCc2ccccc2)C1NC(C)=O)C(N)=O (stereo not given in full)
5. CCN(CC)C(=O)N1CN(c2ccccc2)C2(CCN(CCCSc3ccc(F)cc3)CC2)C1=O
6. CCn1c(=O)c2nc(SC)sc2n(-c2ccc(C)cc2)c1=O

1. > 100 µM (inactive)
2. > 100 µM (inactive)
3. 14 µM (inactive)
4. > 100 µM (inactive)
5. 6.75 µM (inactive)
6. > 100 µM (inactive)

----------
Tested on: SK-OV-3
Experiment: NCI tumour cell line growth inhibition, 48 h
Active and inactive are the calls of the source. No stated cut-off is given here; in the data, active = GI50 up to about 1.1 µM and inactive = higher.
One label from this list, please: y for active, n for inactive

Before answering, review these 3 worked examples.
CC1(C)O[C@@H]2[C@@H](COC(=O)c3ccccc3)C[C@@H](C#N)[C@@H]2O1 = n
O=[N+]([O-])/C=C\c1c[nH]c2ccc(OCc3ccccc3)cc12 = n
CC1=C2CC3=C(C)C(=O)O[C@H]3C[C@@H](C)[C@@H]2CC1 [AMERICANOLIDE D] = n

Below: the item to evaluate.
Kindly provide the recorded test outcome for the following molecule: C=C(OC1C(C)=C2C(C1OC(=O)CCCCCCC)C(C)(OC(C)=O)CC(OC(=O)CCC)C1(O)C2OC(=O)C1(C)O)/C(C)=C/C (centres undefined)
y

----------
Test system: U-251
Test: NCI tumour cell line growth inhibition, 48 h
The source made the active and inactive calls. Rule as the data show it: active = GI50 up to about 1.1 µM and inactive = higher.
Consider the following compounds; for each one, report its GI50.

// each listed compound needs a value for GI50
1. COC(=O)c1c(O)ccc2c1c1c(n2Cc2ccc(Cl)cc2Cl)C(=O)c2ccccc2C1=O
2. O=[N+]([O-])/C(Cl)=C(/C(Cl)=C(Cl)Cl)N1CCCCC1
3. CCCC(=O)Nc1ncnc2c1ncn2C1OC2COP(=O)(O)OC2C1OC(=O)CCC (stereo not given)
4. CSc1ccc2c(cc1=O)[C@@H](NC(=O)c1cc(O)c(O)c(O)c1)CCc1cc(O)c(O)c(O)c1-2
5. O=C1NC(SSC2=NNC3(C(=O)N2)c2ccccc2-c2ccccc23)=NNC12c1ccccc1-c1ccccc12

["10.8 µM (inactive)", "11.8 µM (inactive)", "> 100 µM (inactive)", "18.6 µM (inactive)", "> 10 µM (inactive)"]
